protocol.text: Proton dissociation constants by pH-potentiometry
Type: physicochemical
applied.conditions: I = 0.1 M (KCl); 25 °C; read-out: pKa3 (pHm)
measurement.kind: pKa
Numbers only.

What pKa value was documented for this compound, "Cc1ccc(NC(=O)c2ccc(CN3CCN(C)CC3)cc2)cc1Nc1nccc(-c2cccnc2)n1" ? 3.86

====

protocol.text: Proton dissociation constants by pH-potentiometry
Type: physicochemical
applied.conditions: I = 0.1 M (KCl); 25 °C; read-out: pKa4 (pHm)
measurement.kind: pKa

What pKa value was documented for this compound, Cc1ccc(NC(=O)c2ccc(CN3CCN(C)CC3)cc2)cc1Nc1nccc(-c2cccnc2)n1 [IMA, imatinib] ? > 7
